- assay notes: Plasma pharmacokinetics of olaparib in rats after a single oral dose, alone or with metformin (UPLC-MS/MS, non-compartmental)
- Type: in vivo, Wistar rats
- measurement conditions: male, Wistar, rat, plasma, oral, 100 mg/kg, t 10 h; IIIOLA (olaparib alone); group mean; read-out: Cave_ola
experimental endpoint: concentration at 10 h (ng/mL)
Hi! Could you send only the number? It should be in ng/mL, unit omitted.

concentration at 10 h reading for O=C(c1cc(Cc2n[nH]c(=O)c3ccccc23)ccc1F)N1CCN(C(=O)C2CC2)CC1 [olaparib, Olaparib] : 480

---

- assay notes: Plasma pharmacokinetics of olaparib in rats after a single oral dose, alone or with metformin (UPLC-MS/MS, non-compartmental)
- Type: in vivo, Wistar rats
- measurement conditions: male, Wistar, rat, plasma, po, 100 mg/kg, rat plasma; IIIOLA: olaparib 100 mg/kg b.w. oral single dose alone; n = 8; mean ± SD
experimental endpoint: Tmax (h)
Hi! Could you send only the number? It should be in h, unit omitted.

Tmax reading for O=C(c1cc(Cc2n[nH]c(=O)c3ccccc23)ccc1F)N1CCN(C(=O)C2CC2)CC1 [olaparib, Olaparib] : 1.18

---

- assay notes: Plasma pharmacokinetics of olaparib in rats after a single oral dose, alone or with metformin (UPLC-MS/MS, non-compartmental)
- Assay type: in vivo, Wistar rats
- measurement conditions: male, Wistar, rat, plasma, po, 100 mg/kg, rat plasma; IMET+OLA: metformin 100 mg/kg b.w. + olaparib 100 mg/kg b.w. oral single dose; n = 8; mean ± SD
- Text: All applicable international, national, and/or institutional guidelines for the care and use of animals were followed. […] The maximum plasma concentration (Cmax) and the time to reach the Cmax (tmax) were obtained directly from the measured values. […]
experimental endpoint: Vd/F
# answer = value followed by unit

Vd/F reading for O=C(c1cc(Cc2n[nH]c(=O)c3ccccc23)ccc1F)N1CCN(C(=O)C2CC2)CC1 : 12.5 L

---

- assay notes: Plasma pharmacokinetics of metformin in rats after a single oral dose, alone or with olaparib (HPLC-UV, non-compartmental)
- Format: in vivo, Wistar rats
- measurement conditions: male, Wistar, rat, plasma, po, 100 mg/kg, rat plasma; IMET+OLA: metformin 100 mg/kg b.w. + olaparib 100 mg/kg b.w. oral single dose; n = 8; mean ± SD
experimental endpoint: k el (s⁻¹)
Hi! Could you send only the number? It should be in s⁻¹, unit omitted.

k el reading for CN(C)C(=N)N=C(N)N [metformin, Metformin] : 1.5e-05

---

- assay notes: Plasma pharmacokinetics of metformin in rats after a single oral dose, alone or with olaparib (HPLC-UV, non-compartmental)
- Assay type: in vivo, Wistar rats
- measurement conditions: male, Wistar, rat, plasma, oral, t 0.5 h; IMET+OLA (metformin and olaparib); group mean; read-out: Cmet, S (group mean)
experimental endpoint: concentration at 0.5 h (ng/mL)
Hi! Could you send only the number? It should be in ng/mL, unit omitted.

concentration at 0.5 h reading for CN(C)C(=N)N=C(N)N : 590

---

- assay notes: Plasma pharmacokinetics of metformin in rats after a single oral dose, alone or with olaparib (HPLC-UV, non-compartmental)
- Type: in vivo, Wistar rats
- measurement conditions: male, Wistar, rat, plasma, oral, 100 mg/kg, t 8 h; IIMET (metformin alone); group mean; read-out: Cmet, S (group mean)
experimental endpoint: concentration at 8 h (ng/mL)
Hi! Could you send only the number? It should be in ng/mL, unit omitted.

concentration at 8 h reading for CN(C)C(=N)N=C(N)N : 163

---

- assay notes: Plasma pharmacokinetics of olaparib in rats after a single oral dose, alone or with metformin (UPLC-MS/MS, non-compartmental)
- Type: in vivo, Wistar rats
- measurement conditions: male, Wistar, rat, plasma, po, 100 mg/kg, rat plasma; IIIOLA: olaparib 100 mg/kg b.w. oral single dose alone; n = 8; mean ± SD
- Text: All applicable international, national, and/or institutional guidelines for the care and use of animals were followed. […] The maximum plasma concentration (Cmax) and the time to reach the Cmax (tmax) were obtained directly from the measured values. […]
experimental endpoint: Vd/F (L)
Hi! Could you send only the number? It should be in L, unit omitted.

Vd/F reading for O=C(c1cc(Cc2n[nH]c(=O)c3ccccc23)ccc1F)N1CCN(C(=O)C2CC2)CC1 : 22.5

---

- assay notes: Plasma pharmacokinetics of olaparib in rats after a single oral dose, alone or with metformin (UPLC-MS/MS, non-compartmental)
- Type: in vivo, Wistar rats
- measurement conditions: male, Wistar, rat, plasma, oral, 100 mg/kg, t 0.750 h; IIIOLA (olaparib alone); group mean; read-out: Cave_ola
experimental endpoint: concentration at 0.75 h (ng/mL)
Hi! Could you send only the number? It should be in ng/mL, unit omitted.

concentration at 0.75 h reading for O=C(c1cc(Cc2n[nH]c(=O)c3ccccc23)ccc1F)N1CCN(C(=O)C2CC2)CC1 [olaparib, Olaparib] : 4440

---

- assay notes: Plasma pharmacokinetics of olaparib in rats after a single oral dose, alone or with metformin (UPLC-MS/MS, non-compartmental)
- Type: in vivo, Wistar rats
- measurement conditions: male, Wistar, rat, plasma, oral, 100 mg/kg, t 0.500 h; IIIOLA (olaparib alone); group mean; read-out: Cave_ola
experimental endpoint: concentration at 0.5 h (µg/mL)
Hi! Could you send only the number? It should be in µg/mL, unit omitted.

concentration at 0.5 h reading for O=C(c1cc(Cc2n[nH]c(=O)c3ccccc23)ccc1F)N1CCN(C(=O)C2CC2)CC1 : 4.59

---

- assay notes: Plasma pharmacokinetics of metformin in rats after a single oral dose, alone or with olaparib (HPLC-UV, non-compartmental)
- Type: in vivo, Wistar rats
- measurement conditions: male, Wistar, rat, plasma, oral, t 4 h; IMET+OLA (metformin and olaparib); group mean; read-out: Cmet, S (group mean)
experimental endpoint: concentration at 4 h (ng/mL)
Hi! Could you send only the number? It should be in ng/mL, unit omitted.

concentration at 4 h reading for CN(C)C(=N)N=C(N)N [metformin, Metformin] : 734

---

- assay notes: Plasma pharmacokinetics of metformin in rats after a single oral dose, alone or with olaparib (HPLC-UV, non-compartmental)
- Format: in vivo, Wistar rats
- measurement conditions: male, Wistar, rat, plasma, oral, t 0.083 h; IMET+OLA (metformin and olaparib); group mean; read-out: Cmet, S (group mean)
experimental endpoint: concentration at 0.083 h (µg/mL)
Hi! Could you send only the number? It should be in µg/mL, unit omitted.

concentration at 0.083 h reading for CN(C)C(=N)N=C(N)N : 0.14

---

- assay notes: Plasma pharmacokinetics of olaparib in rats after a single oral dose, alone or with metformin (UPLC-MS/MS, non-compartmental)
- Assay type: in vivo, Wistar rats
- measurement conditions: male, Wistar, rat, plasma, oral, t 12 h; IMET+OLA (metformin and olaparib); group mean; read-out: Cave_ola
experimental endpoint: concentration at 12 h (µg/mL)
Hi! Could you send only the number? It should be in µg/mL, unit omitted.

concentration at 12 h reading for O=C(c1cc(Cc2n[nH]c(=O)c3ccccc23)ccc1F)N1CCN(C(=O)C2CC2)CC1 : 0.0944

---

- assay notes: Plasma pharmacokinetics of olaparib in rats after a single oral dose, alone or with metformin (UPLC-MS/MS, non-compartmental)
- Format: in vivo, Wistar rats
- measurement conditions: male, Wistar, rat, plasma, po, 100 mg/kg, rat plasma; IMET+OLA: metformin 100 mg/kg b.w. + olaparib 100 mg/kg b.w. oral single dose; n = 8; mean ± SD
experimental endpoint: AUC(0-inf) (ng·h/mL)
Hi! Could you send only the number? It should be in ng·h/mL, unit omitted.

AUC(0-inf) reading for O=C(c1cc(Cc2n[nH]c(=O)c3ccccc23)ccc1F)N1CCN(C(=O)C2CC2)CC1 : 29000

---

- assay notes: Plasma pharmacokinetics of olaparib in rats after a single oral dose, alone or with metformin (UPLC-MS/MS, non-compartmental)
- Format: in vivo, Wistar rats
- measurement conditions: male, Wistar, rat, plasma, oral, 100 mg/kg, t 6 h; IIIOLA (olaparib alone); group mean; read-out: Cave_ola
experimental endpoint: concentration at 6 h (ng/mL)
Hi! Could you send only the number? It should be in ng/mL, unit omitted.

concentration at 6 h reading for O=C(c1cc(Cc2n[nH]c(=O)c3ccccc23)ccc1F)N1CCN(C(=O)C2CC2)CC1 : 1460

---

- assay notes: Plasma pharmacokinetics of olaparib in rats after a single oral dose, alone or with metformin (UPLC-MS/MS, non-compartmental)
- Assay type: in vivo, Wistar rats
- measurement conditions: male, Wistar, rat, plasma, po, 100 mg/kg, rat plasma; IIIOLA: olaparib 100 mg/kg b.w. oral single dose alone; n = 8; mean ± SD
experimental endpoint: AUC(0-inf)
# answer = value followed by unit

AUC(0-inf) reading for O=C(c1cc(Cc2n[nH]c(=O)c3ccccc23)ccc1F)N1CCN(C(=O)C2CC2)CC1 : 28600 ng·h/mL

Hey, just so you know, these numbers are from paper PMC10796410.
